Tested on: Vero E6 infected with SARS-CoV-2
Assay: inhibition of SARS-CoV-2 cytopathic effect; higher = more antiviral protection, active = above 15
Conditions: 10000 nM; 48 h
I'd appreciate it if you could supply inhibition of SARS-CoV-2 cytopathic effect values for the items below.
Numbers only, in %.

Take a look at these entries with their results.
1) Oc1cc2c(cc1O)[C@H](Cc1cccc3ccccc13)NCC2; -2.59
2) Cc1ccc(-c2ncn(-c3ccc(Nc4nccc(-c5cccc(N6CCOCC6)c5)n4)cc3)n2)cn1; -2.89
3) Ic1cncc(OC[C@@H]2CCN2)c1; -0.56
4) O=C(Nc1ccccc1)OCC(CN1CCCCC1)OC(=O)Nc1ccccc1 (stereo not given) [diperodon]; -5.11
5) CC(=O)N1N=C(c2ccc(N)cc2)c2cc3c(cc2C[C@H]1C)OCO3 [talampanel]; 1.16

List reported inhibition of SARS-CoV-2 cytopathic effect for each of these compounds:
1. CS(=O)(=O)Nc1ccc2oc3c(OC(F)F)ccc(C(=O)Nc4c(Cl)cncc4Cl)c3c2c1 [oglemilast]
2. Clc1ccc(C(OCCN2CCCCC2)c2ccccc2)cc1 (stereo not given) [cloperastine]
3. NCCNC(=O)c1ccc(Cl)cn1 [lazabemide]
4. Cc1ccc(Oc2ccccc2-c2csc(N=C3NCCCN3)n2)c(C)c1 [abafungin]
5. O=C(O)c1cc(O)c2c(Cl)cc(Cl)cc2n1 [5,7-dichlorokynurenic-acid]

Given back:
[1.89, -8.21, 3.29, -6.36, -0.44]
